Target under test: monkey DLL3 on CHO-K1-cyno DLL3 cells (cynomolgus monkey)
Sequence (chain, as listed by the source limits assumed): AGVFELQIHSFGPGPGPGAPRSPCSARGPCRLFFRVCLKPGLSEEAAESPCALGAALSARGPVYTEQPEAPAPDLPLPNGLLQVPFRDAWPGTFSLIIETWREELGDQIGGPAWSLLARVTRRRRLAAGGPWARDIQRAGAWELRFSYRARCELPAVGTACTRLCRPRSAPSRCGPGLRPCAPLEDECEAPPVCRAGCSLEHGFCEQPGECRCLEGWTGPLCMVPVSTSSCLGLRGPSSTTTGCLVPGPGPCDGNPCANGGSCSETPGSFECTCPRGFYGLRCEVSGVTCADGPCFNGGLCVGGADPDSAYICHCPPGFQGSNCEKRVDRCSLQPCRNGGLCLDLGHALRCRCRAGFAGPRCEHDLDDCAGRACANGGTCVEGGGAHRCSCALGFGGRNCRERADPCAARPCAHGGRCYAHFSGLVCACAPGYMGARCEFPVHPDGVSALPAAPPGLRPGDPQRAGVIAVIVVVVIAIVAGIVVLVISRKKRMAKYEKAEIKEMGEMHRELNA
Assay summary: FACS, CHO-K1-cyno DLL3 cells, 4 nM antibody
Measured endpoint: MFI (MFI)

binder="Hab015VL5VH5a-hFc (scFv, part only; not given: scFv linker and human IgG1 Fc, V domains shown, not shown: another chain or arm of the molecule; a dimerising Fc or GST; small tags and cut ends) VL: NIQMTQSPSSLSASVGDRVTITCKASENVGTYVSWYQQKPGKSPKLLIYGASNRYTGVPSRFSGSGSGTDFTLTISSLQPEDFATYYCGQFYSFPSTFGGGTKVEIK VH: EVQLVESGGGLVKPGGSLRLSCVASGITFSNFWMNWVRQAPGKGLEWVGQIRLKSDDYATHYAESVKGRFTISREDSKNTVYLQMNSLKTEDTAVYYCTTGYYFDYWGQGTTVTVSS" endpoint_unit=MFI test_result=6610
binder="Hab014VL2VH1-hFc (scFv, part only; not given: scFv linker and human IgG1 Fc, V domains shown, not shown: another chain or arm of the molecule; a dimerising Fc or GST; small tags and cut ends) VL: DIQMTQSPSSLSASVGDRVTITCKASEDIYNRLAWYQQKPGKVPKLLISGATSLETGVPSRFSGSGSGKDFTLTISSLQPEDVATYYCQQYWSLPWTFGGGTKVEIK VH: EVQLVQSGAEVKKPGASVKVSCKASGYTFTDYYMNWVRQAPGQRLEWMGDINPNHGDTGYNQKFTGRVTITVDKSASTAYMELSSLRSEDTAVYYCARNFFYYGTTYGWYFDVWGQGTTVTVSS" endpoint_unit=MFI test_result=25300
binder="Hab015VL4VH5a-hFc (scFv, part only; not given: VL-VH linker and human IgG1 Fc, V domains shown, not shown: another chain or arm of the molecule; a dimerising Fc or GST; small tags and cut ends) VL: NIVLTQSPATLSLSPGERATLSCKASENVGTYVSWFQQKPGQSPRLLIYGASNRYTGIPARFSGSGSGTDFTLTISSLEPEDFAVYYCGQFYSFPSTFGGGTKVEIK VH: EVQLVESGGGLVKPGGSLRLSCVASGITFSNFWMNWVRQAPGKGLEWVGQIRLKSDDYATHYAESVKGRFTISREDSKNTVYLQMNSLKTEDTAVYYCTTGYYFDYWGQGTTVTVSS" endpoint_unit=MFI test_result=6520
